Quick reference: Ki of the listed items.
# ASSAYED_SYSTEM: Adrenergic receptor alpha-2 (Rattus norvegicus, UniProt P22086+P19328+P22909)
# PROCEDURE_SUMMARY: Displacement of [3H]RX821002 from alpha2 adrenergic receptor in rat brain membrane
# Type: cell membranes
Write down the numeric answer in µM and omit the unit.

# CPD_SMILES, RECORDED_MEASUREMENT
data = [
    ("CCCN1CCN=C1c1cc2cc(O)c(O)cc2o1", 10.16),
    ("CCCN1CCN=C1c1cc2ccc(O)cc2o1", 1.92),
    ("Oc1ccc2cc(C3=NCCN3)oc2c1", 11),
    ("Oc1cc2cc(C3=NCCN3)oc2cc1O", 24.21),
]

Specify the recorded Ki for "Oc1ccc2oc(C3=NCCN3Cc3ccccc3)cc2c1" , system: Adrenergic receptor alpha-2 (Rattus norvegicus, UniProt P22086+P19328+P22909).
4.39

Fetch value of Ki on Adrenergic receptor alpha-2 (Rattus norvegicus, UniProt P22086+P19328+P22909) for "Oc1ccc2oc(C3=NCCN3)cc2c1" .
2.95

Report Ki on Adrenergic receptor alpha-2 (Rattus norvegicus, UniProt P22086+P19328+P22909) for this entry: "CCCN1CCN=C1c1cc2cc(O)ccc2o1"
3.64

# return Ki for "Oc1ccc2cc(C3=NCCN3Cc3ccccc3)oc2c1" , test system: Adrenergic receptor alpha-2 (Rattus norvegicus, UniProt P22086+P19328+P22909)
2.08

Using Adrenergic receptor alpha-2 (Rattus norvegicus, UniProt P22086+P19328+P22909) as the test system, report measured Ki of "Oc1cc2cc(C3=NCCN3Cc3ccccc3)oc2cc1O" .
4.43

Please look at "CCN1CCN=C1c1cc2cc(O)ccc2o1" and tell me its recorded Ki on Adrenergic receptor alpha-2 (Rattus norvegicus, UniProt P22086+P19328+P22909).
25.5
